compounds and their reported aqueous solubility
# particulars: pH 6.8
reported-metric: aqueous solubility (µg/mL)

>>> reported_measurement("CC#CCNc1ccc(-n2cnnn2)c(C)c1")
19.4
>>> reported_measurement("COc1ccc(C2(NCc3cnn(-c4ccccc4)c3)CCCC2)cc1")
57.4
>>> reported_measurement("CSc1ncccc1C(=O)Nc1ccc(N2CCCCC2=O)cc1")
8.97
>>> reported_measurement("CN(C)c1ccc(Cn2c(=O)[nH]c3ccccc3c2=O)cn1")
2.6
>>> reported_measurement("Cc1ccc(CNC(=O)c2cccnc2)n1C")
40.6
>>> reported_measurement("CCCS(=O)(=O)N1CCCC(C(=O)N2CCc3ccccc3C2)C1 (stereo not given)")
54.8
>>> reported_measurement("O=C(Nc1cccc(Cl)c1F)c1cccc(N2CCCC2=O)c1")
3.4
>>> reported_measurement("CCCNC(=O)C1(Cc2ccccn2)CCOCC1")
85.3
>>> reported_measurement("CONC(=O)c1cn(-c2ccc(Br)cc2)cn1")
63.6
>>> reported_measurement("c1ccc(COc2ccc(CNCC3CCNCC3)cc2)cc1")
25.2
>>> reported_measurement("Cc1cc(C)n(CCNC(=O)NC2CCOCC2)n1")
47.5
>>> reported_measurement("OCCCCCn1cc(-c2ccccc2-c2ccco2)nn1")
11.1
>>> reported_measurement("Cn1cc(CCNC(=O)N2CCCc3c(F)cccc32)cn1")
42.5
>>> reported_measurement("CN(CC(=O)Nc1cccc(F)c1)C(=O)c1cccc(C#N)c1")
56.2
>>> reported_measurement("CC1CCN(CC(=O)Nc2nc(-c3c[nH]c4ccccc34)cs2)CC1")
5.19
>>> reported_measurement("CCOc1ncccc1-c1nc(C)cc(NC)n1")
36.4
>>> reported_measurement("O=C(NCc1nncn1-c1ccccc1)C1CCCC1")
43.3
>>> reported_measurement("COc1ccc(CN(C)C(=O)Nc2ccccc2)cc1F")
45.9
>>> reported_measurement("c1ccc(-c2n[nH]c(C3CCN(c4ccccn4)CC3)n2)cc1")
34.4
>>> reported_measurement("CCCN(CC)c1ccc(C(=O)N2CCCN(C(C)=O)CC2)cc1")
48.4
>>> reported_measurement("N#CC1(NC(=O)CN2CCOCC2)CCCCCC1")
45.1
>>> reported_measurement("COc1cc(Br)c(Nc2nc(-c3c(C)nc4ncccn34)cs2)c(Br)c1")
29.1
>>> reported_measurement("Cn1cc(NC(=O)c2csc(Cc3ccccc3)n2)cn1")
34.5
>>> reported_measurement("O=C(O)c1cnc(/C=C/c2csc(-c3ccsc3)n2)s1")
77.5
>>> reported_measurement("CC(=O)c1cnc2ccc(-c3cc(Cl)c(O)c(Cl)c3)nc2c1N[C@H]1CC[C@H](CN(C)C)CC1")
0.3
